Known Ki of a selection of compounds
Molecular target: cloned human dopamine D3 receptors (Homo sapiens, UniProt P35462)
Construct: expressed in transfected cells; membrane homogenate
Sequence (P35462 whole entry): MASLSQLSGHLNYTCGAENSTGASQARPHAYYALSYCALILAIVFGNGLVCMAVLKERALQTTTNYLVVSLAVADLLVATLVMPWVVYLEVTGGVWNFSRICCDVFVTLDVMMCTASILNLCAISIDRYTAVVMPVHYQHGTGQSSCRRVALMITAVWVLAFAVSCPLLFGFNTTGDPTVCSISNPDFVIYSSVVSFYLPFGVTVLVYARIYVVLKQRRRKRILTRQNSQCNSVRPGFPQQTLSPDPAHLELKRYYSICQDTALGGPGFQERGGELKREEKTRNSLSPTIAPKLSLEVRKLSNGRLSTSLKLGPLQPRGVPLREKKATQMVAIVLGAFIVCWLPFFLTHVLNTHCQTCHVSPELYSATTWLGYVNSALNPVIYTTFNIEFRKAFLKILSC
Test: [N-Methyl-3H]Spiroperidol binding to cloned human dopamine D3 receptors (Protocol 1)
Conditions: the 18th table; read-out: D3 Ki
// units = nM; emit number, no label

// known answers, use as guide
O=C(NCc1sccc1CN1CCN(c2csc3cc(F)ccc23)CC1)c1ccncc1; 29
CC1=C(C(=O)NCc2sccc2CN2CCN(c3csc4cc(F)ccc34)CC2)Cc2ccccc21; 16

[Q] Request body: readout Ki, system cloned human dopamine D3 receptors (Homo sapiens, UniProt P35462), query Cn1c(C(=O)NCc2sccc2CN2CCN(c3csc4cc(F)ccc34)CC2)cc2ccccc21 . Return the value.
[A] 120

[Q] Continue with O=C(NCc1sccc1CN1CCN(c2csc3cc(F)ccc23)CC1)c1cccc2cc[nH]c12
[A] 46

---

Known Ki of a selection of molecules
Target: cloned human dopamine D3 receptors (Homo sapiens, UniProt P35462)
Construct: expressed in transfected cells; membrane homogenate
Assay: [N-Methyl-3H]Spiroperidol binding to cloned human dopamine D3 receptors (Protocol 1)
Settings: the 13th table, unit inferred; read-out: D3Ki
// units = nM; emit number, no label

C=CCCCCCCC(=O)NCCCCCN1CCC(c2noc3ccsc23)CC1 [compound 816203]; 94.1
O=C(NCCCCN1CCC(c2noc3ccsc23)CC1)c1ccc2ccccc2c1 [compound 81514]; 191

[Q] Form field: reported Ki of O=C(NCCCCN1CCCN(c2csc3cc(F)ccc23)CC1)c1ccc(F)cc1 [S981846]
[A] 26.9

[Q] Continue with O=C(NCCCCN1CCCN(c2csc3cc(C(F)(F)F)ccc23)CC1)c1ccc2[nH]ccc2c1 [S980651]
[A] 54

[Q] Continue with COc1ccccc1C(=O)NCCCCN1CCCN(c2csc3cc(F)ccc23)CC1 [compound 822157]
[A] 1.4

[Q] Continue with CCCCCCC(=O)NCCCCCN1CCC(c2noc3ccsc23)CC1 [compound 816202]
[A] 326

[Q] Continue with O=C(NCCCCN1CCCN(c2csc3cc(F)ccc23)CC1)c1ccccc1F [compound 822195]
[A] 4.7

[Q] Continue with O=C(NCCCCN1CCCN(c2csc3cc(F)ccc23)CC1)c1c[nH]c2ccccc12 [S977822]
[A] 4.12

---

Target: cloned human dopamine D3 receptors (Homo sapiens, UniProt P35462)
Construct: expressed in transfected cells; membrane homogenate
Assay: [N-Methyl-3H]Spiroperidol binding to cloned human dopamine D3 receptors (Protocol 1)
Details: the 22nd table; read-out: D3 Ki
Source text: [N-Methyl-^3H]Spiroperidol Binding to Cloned Human Dopamine D3 Receptors This assay measures the in vitro activity of compounds on cloned human dopamine (D3) receptors and predicts the direct dopamine-blocking properties of putative neuropsychiatric agents at human dopamine D3 receptors. The D3 gene was isolated from a human striatal cDNA library (Stratagene). The gene was sequenced and sub-cloned into the expression vector RC/RSV (Invitrogen). […]
Outcome measure: pKi
The quantity pKi is defined as the negative base-10 logarithm of the molar concentration.

O=C(NCCCCN1CCN(c2n[nH]c3ccsc23)CC1)c1ccc(F)cc1; 6.94
Cc1csc2c(N3CCN(CCCCNC(=O)CCCc4ccccc4)CC3)noc12; 7.20

[Q] Form field: reported pKi of O=C(NCCCCN1CCN(c2noc3ccsc23)CC1)c1cccc(C(F)(F)F)c1
[A] 6.29

[Q] Continue with O=C(NCCCCN1CCN(c2noc3ccsc23)CC1)c1ccc(-c2ccccc2)cc1
[A] 7.83

[Q] Continue with O=C(NCCCCN1CCN(c2n[nH]c3ccsc23)CC1)c1ccc(-c2ccccc2)cc1
[A] 8.07

[Q] Continue with N#Cc1ccc(C(=O)NCCCCN2CCN(c3noc4ccsc34)CC2)cc1
[A] 7.38

[Q] Continue with O=C(NCCCCN1CCN(c2noc3ccsc23)CC1)c1cccs1
[A] 7.30
